Kd listing for selected binders.
Molecular target: T1, Arabidopsis thaliana phytochrome B, N-terminal fragment encompassing the N-terminal extension (NTE) and the … (Arabidopsis thaliana, UniProt P14713 1-651, phycocyanobilin chromophore, covalently bound)
T1 construct: Phytochrome B, Arabidopsis thaliana, GenBank CAA35222.1; N-terminal fragment with the NTE and the PCM (nPAS-GAF-PHY), lacking PAS1, PAS2 and the HKRD; source: E. coli LOBSTR, purified (Co2+-NTA IMAC, anion exchange); plasmid also encodes Synechocystis sp. heme oxygenase 1 and PcyA
T1 sequence (looked up): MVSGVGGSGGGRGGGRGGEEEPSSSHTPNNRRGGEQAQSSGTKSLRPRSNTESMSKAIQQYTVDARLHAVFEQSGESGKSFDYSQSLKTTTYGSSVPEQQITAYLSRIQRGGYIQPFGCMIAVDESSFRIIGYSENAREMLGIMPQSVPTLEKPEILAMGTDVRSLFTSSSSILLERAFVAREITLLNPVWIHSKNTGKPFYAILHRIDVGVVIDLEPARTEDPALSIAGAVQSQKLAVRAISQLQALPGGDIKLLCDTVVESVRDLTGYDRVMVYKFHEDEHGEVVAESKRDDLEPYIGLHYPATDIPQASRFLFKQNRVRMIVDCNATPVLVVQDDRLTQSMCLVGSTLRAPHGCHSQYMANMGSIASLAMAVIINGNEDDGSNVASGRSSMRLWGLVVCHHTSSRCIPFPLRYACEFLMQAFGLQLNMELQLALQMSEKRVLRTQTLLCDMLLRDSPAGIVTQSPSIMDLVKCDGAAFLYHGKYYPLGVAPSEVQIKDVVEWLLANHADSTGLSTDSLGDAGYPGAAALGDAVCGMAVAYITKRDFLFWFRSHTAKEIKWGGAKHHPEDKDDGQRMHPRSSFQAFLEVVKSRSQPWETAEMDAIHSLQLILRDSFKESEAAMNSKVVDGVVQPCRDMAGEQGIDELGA
Assay: FRET or BRET; association kinetics at 15 °C after a 0.5-s pulse of red light (658 nm, 69 mW cm^-2, optical shutter); 20 nM PIF-mScarlet-I variant with 500 to 2,000 nM AtPhyB PCM, or 30 nM P6A-mScarlet-I with 750 to 2,500 nM AtPhyB (1-982); 50 mM Tris/HCl pH 8.0, 20 mM NaCl; pseudo-first-order, linear fit of koFR against the AtPhyB concentration; kaFR corrected for the Pfr fraction; Kd calculated from kdFR and kaFR …
Conditions: both partners purified
No end group written: not given here.
assayEndpoint: Kd (nM)

[[record]]
binder = "PIF6-mScarlet-I (Arabidopsis PIF6 residues 1 to 100 fused to mScarlet-I) (domain or fragment, Arabidopsis thaliana, UniProt Q8L5W7 1-100, looked up, mScarlet-I: GenBank APD76536; also called AtPIF6; source: E. coli LOBSTR, purified (IMAC, SENP2 cleavage, second IMAC, optionally anion exchange); not shown: His6-SUMO, N-terminal, cleaved) MMFLPTDYCCRLSDQEYMELVFENGQILAKGQRSNVSLHNQRTKSIMDLYEAEYNEDFMKSIIHGGGGAITNLGDTQVVPQSHVAAAHETNMLESNKHVD"
assayendpoint = "Kd"
obsvalue = 133

[[record]]
binder = "DQEYMELVFENGQILAKGQRSNVSLHNQRTKSIMDLYEAE-{mScarlet‑I} (domain or fragment, Arabidopsis thaliana, UniProt Q8L5W7 14-53, looked up, mScarlet-I: GenBank APD76536; source: E. coli LOBSTR, purified (IMAC, SENP2 cleavage, second IMAC, optionally anion exchange); not shown: His6-SUMO, N-terminal, cleaved; mScarlet-I, C-terminal, kept) [P6A-mScarlet-I (Arabidopsis PIF6 residues 14 to 53, APB.A portion, fused to mScarlet-I)]"
assayendpoint = "Kd"
obsvalue = 183

[[record]]
binder = "LESAQDRNPSPPVDEVVELVWENGQISTQSQSSRSRNIPPPQ-{mScarlet‑I} (domain or fragment, Arabidopsis thaliana, UniProt O80536 14-55, looked up, mScarlet-I: GenBank APD76536; source: E. coli LOBSTR, purified (IMAC, SENP2 cleavage, second IMAC, optionally anion exchange); not shown: His6-SUMO, N-terminal, cleaved; mScarlet-I, C-terminal, kept) [P3A-mScarlet-I (Arabidopsis PIF3 residues 14 to 55, APB.A portion, fused to mScarlet-I)]"
assayendpoint = "Kd"
obsvalue = 322

[[record]]
binder = "PIF3-mScarlet-I (Arabidopsis PIF3 residues 1 to 100 fused to mScarlet-I) (domain or fragment, Arabidopsis thaliana, UniProt O80536 1-100, looked up, mScarlet-I: GenBank APD76536; also called AtPIF3; source: E. coli LOBSTR, purified (IMAC, SENP2 cleavage, second IMAC, optionally anion exchange); not shown: His6-SUMO, N-terminal, cleaved) MPLFELFRLTKAKLESAQDRNPSPPVDEVVELVWENGQISTQSQSSRSRNIPPPQANSSRAREIGNGSKTTMVDEIPMSVPSLMTGLSQDDDFVPWLNHH"
assayendpoint = "Kd"
obsvalue = 308

